protocolSummary: in vitro
experimentalSetup: human, CAR-T cells
recordedEndpoint: viability at 12 day, 5000 nM (%)
Numeric only. Scale: %

// query Give the measured viability at 12 day, 5000 nM of C[C@H]1C[C@@H]2[C@H]([C@@H](O)C[C@@]3(C)[C@H]2CC[C@]3(O)C(=O)CO)[C@@]2(C)C=CC(=O)C=C12 .
// result 71.9

###

Listing of recorded IC50 by entry.
System: CD19 CAR T cells
protocolSummary: CAR T cell cytokine production (Luminex) under CD19 K562, KIP-1 or CD2/3/28 stimulation
experimentalSetup: Homo sapiens, T-cell, 72 h, read-out: Suppression of cytokine production, IL-2Ra (IC50), K562-CD19 stimulation, 72 h

1. CC[C@@H]1CN(C(=O)NCC(F)(F)F)C[C@@H]1c1cnc2cnc3[nH]ccc3n12
< 0.1 µM
2. O=C(Nc1nc2cccc(-c3ccc(CN4CCS(=O)(=O)CC4)cc3)n2n1)C1CC1
4.82 µM
3. C[C@@H]1C[C@H]2[C@@H]3CCC4=CC(=O)C=C[C@]4(C)[C@@]3(F)[C@@H](O)C[C@]2(C)[C@@]1(O)C(=O)CO
> 10 µM

Please find the next molecule below.
// query Give the measured IC50 of N#CCC1(n2cc(-c3ncnc4[nH]ccc34)cn2)CN(C2CCN(C(=O)c3ccnc(C(F)(F)F)c3F)CC2)C1 .
// result < 0.1 µM

###

Test system: phospho-STAT panel (pSTAT3/4/5), CD3+ T cells
protocolSummary: phospho-STAT induction by IL-6, MesoScale Discovery phospho-STAT panel
Type: cell-based, human
experimentalSetup: CD3+ T cells, 100 ng/ml IL-6 + drug 10 uM, 20 min; MSD signal (No stim. 689, IL-6 alone 33641)
recordedEndpoint: pSTAT3
Write the value as a bare number.

Some compounds with known pSTAT3 results, for comparison:
1. C[C@H]1C[C@@H]2[C@H]([C@@H](O)C[C@@]3(C)[C@H]2CC[C@]3(O)C(=O)CO)[C@@]2(C)C=CC(=O)C=C12
25867
2. CC[C@@H]1CN(C(=O)NCC(F)(F)F)C[C@@H]1c1cnc2cnc3[nH]ccc3n12
2450

// query Give the measured pSTAT3 of C[C@@H]1C[C@H]2[C@@H]3CCC4=CC(=O)C=C[C@]4(C)[C@@]3(F)[C@@H](O)C[C@]2(C)[C@@]1(O)C(=O)CO .
// result 25688

// query Give the measured pSTAT3 of O=C(Nc1nc2cccc(-c3ccc(CN4CCS(=O)(=O)CC4)cc3)n2n1)C1CC1 .
// result 2169

// query Give the measured pSTAT3 of C[C@@H]1CCN(C(=O)CC#N)C[C@@H]1N(C)c1ncnc2[nH]ccc12 .
// result 2238

###

protocolSummary: Clinical pharmacokinetic data converted to in vitro concentrations
experimentalSetup: human, in vivo
Listing of recorded clinically relevant dose level (in vitro concentration) by entry.

Some compounds with known clinically relevant dose level (in vitro concentration) results, for comparison:
1) O=C(Nc1nc2cccc(-c3ccc(CN4CCS(=O)(=O)CC4)cc3)n2n1)C1CC1 [filgotinib]
~1 µM
2) C[C@H]1C[C@@H]2[C@H]([C@@H](O)C[C@@]3(C)[C@H]2CC[C@]3(O)C(=O)CO)[C@@]2(C)C=CC(=O)C=C12 [methylprednisolone]
~2.5 µM
3) Nc1nc2cccc(-c3ccc(CN4CCS(=O)(=O)CC4)cc3)n2n1 [GS-829845]
~4 µM

// query Give the measured clinically relevant dose level (in vitro concentration) of C[C@@H]1C[C@H]2[C@@H]3CCC4=CC(=O)C=C[C@]4(C)[C@@]3(F)[C@@H](O)C[C@]2(C)[C@@]1(O)C(=O)CO [dexamethasone] .
// result ~0.07 µM

// query Give the measured clinically relevant dose level (in vitro concentration) of CC[C@@H]1CN(C(=O)NCC(F)(F)F)C[C@@H]1c1cnc2cnc3[nH]ccc3n12 [upadacitinib] .
// result ~0.1 µM

###

protocolSummary: in vitro
experimentalSetup: human
recordedEndpoint: viability at 4 day, 500 nM (%)
Numeric only. Scale: %

// query Give the measured viability at 4 day, 500 nM of O=C(Nc1nc2cccc(-c3ccc(CN4CCS(=O)(=O)CC4)cc3)n2n1)C1CC1 .
// result 61.1

###

protocolSummary: in vitro
experimentalSetup: human, CAR-T cells
recordedEndpoint: viability at 4 day, 10 nM (%)
Numeric only. Scale: %

// query Give the measured viability at 4 day, 10 nM of CCS(=O)(=O)N1CC(CC#N)(n2cc(-c3ncnc4[nH]ccc34)cn2)C1 .
// result 58.9

###

Tested on: CD19 CAR T cells
protocolSummary: CAR T cell cytokine production (Luminex) under CD19 K562, KIP-1 or CD2/3/28 stimulation
experimentalSetup: Homo sapiens, T-cell, 72 h, read-out: Suppression of cytokine production, GzB (IC50), K562-CD19 stimulation, 72 h
recordedEndpoint: IC50

Some compounds with known IC50 results, for comparison:
1. N#CCC1(n2cc(-c3ncnc4[nH]ccc34)cn2)CN(C2CCN(C(=O)c3ccnc(C(F)(F)F)c3F)CC2)C1
> 10 µM
2. C[C@@H]1C[C@H]2[C@@H]3CCC4=CC(=O)C=C[C@]4(C)[C@@]3(F)[C@@H](O)C[C@]2(C)[C@@]1(O)C(=O)CO
> 10 µM

// query Short answer please: IC50, CD19 CAR T cells, entry CC[C@@H]1CN(C(=O)NCC(F)(F)F)C[C@@H]1c1cnc2cnc3[nH]ccc3n12
// result 1.03 µM

// query Short answer please: IC50, CD19 CAR T cells, entry O=C(Nc1nc2cccc(-c3ccc(CN4CCS(=O)(=O)CC4)cc3)n2n1)C1CC1
// result > 10 µM

###

assaySystem: JAK1 (Homo sapiens)
Sequence (P23458 whole entry): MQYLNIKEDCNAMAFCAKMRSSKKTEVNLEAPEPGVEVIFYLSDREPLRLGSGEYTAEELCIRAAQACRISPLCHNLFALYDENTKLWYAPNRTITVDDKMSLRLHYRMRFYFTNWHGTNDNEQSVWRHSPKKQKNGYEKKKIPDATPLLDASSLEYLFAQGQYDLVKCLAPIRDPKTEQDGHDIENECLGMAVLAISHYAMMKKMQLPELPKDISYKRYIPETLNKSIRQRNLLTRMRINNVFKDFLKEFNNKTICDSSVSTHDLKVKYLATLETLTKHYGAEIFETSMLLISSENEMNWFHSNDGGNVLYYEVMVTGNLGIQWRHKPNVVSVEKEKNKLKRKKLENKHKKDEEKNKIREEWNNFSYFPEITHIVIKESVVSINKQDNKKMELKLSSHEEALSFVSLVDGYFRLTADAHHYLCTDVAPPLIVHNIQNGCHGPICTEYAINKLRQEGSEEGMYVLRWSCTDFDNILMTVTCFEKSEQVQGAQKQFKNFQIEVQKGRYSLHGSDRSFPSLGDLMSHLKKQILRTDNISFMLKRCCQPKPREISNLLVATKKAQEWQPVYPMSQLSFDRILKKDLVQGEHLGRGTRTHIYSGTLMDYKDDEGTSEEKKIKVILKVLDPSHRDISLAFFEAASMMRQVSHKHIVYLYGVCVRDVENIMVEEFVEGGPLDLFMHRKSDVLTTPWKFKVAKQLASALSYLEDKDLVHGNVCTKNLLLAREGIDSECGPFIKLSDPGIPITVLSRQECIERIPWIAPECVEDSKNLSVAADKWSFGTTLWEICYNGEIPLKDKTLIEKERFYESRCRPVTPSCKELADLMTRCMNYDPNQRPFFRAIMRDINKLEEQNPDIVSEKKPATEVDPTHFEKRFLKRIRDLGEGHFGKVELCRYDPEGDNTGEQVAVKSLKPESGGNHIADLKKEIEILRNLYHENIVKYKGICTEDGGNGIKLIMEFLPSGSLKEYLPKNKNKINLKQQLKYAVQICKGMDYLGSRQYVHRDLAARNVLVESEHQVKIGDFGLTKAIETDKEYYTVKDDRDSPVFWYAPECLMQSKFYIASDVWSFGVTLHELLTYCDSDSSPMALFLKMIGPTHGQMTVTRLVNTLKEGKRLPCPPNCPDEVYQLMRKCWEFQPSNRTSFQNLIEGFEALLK
protocolSummary: JAK kinase inhibition biochemical assay (Kinase-Glo Plus luminescence), JAK1
experimentalSetup: 10 μM ATP
Listing of recorded IC50 by entry.
Numeric only. Scale: nM

1) N#CCC1(n2cc(-c3ncnc4[nH]ccc34)cn2)CN(C2CCN(C(=O)c3ccnc(C(F)(F)F)c3F)CC2)C1 [itacitinib]
13

Please find the next compound below.
// query Give the measured IC50 of Nc1nc2cccc(-c3ccc(CN4CCS(=O)(=O)CC4)cc3)n2n1 [GS-829845] .
// result 448

###

protocolSummary: in vitro
experimentalSetup: human, CAR-T cells
Listing of recorded viability at 0 day, 50 nM by entry.
Numeric only. Scale: %

1) C[C@@H]1C[C@H]2[C@@H]3CCC4=CC(=O)C=C[C@]4(C)[C@@]3(F)[C@@H](O)C[C@]2(C)[C@@]1(O)C(=O)CO
75

Please find the next compound below.
// query Give the measured viability at 0 day, 50 nM of CC[C@@H]1CN(C(=O)NCC(F)(F)F)C[C@@H]1c1cnc2cnc3[nH]ccc3n12 .
// result 75

###

Test system: phospho-STAT panel (pSTAT3/4/5), CD3+ T cells
protocolSummary: phospho-STAT induction by IL-6, MesoScale Discovery phospho-STAT panel
Type: cell-based, human
experimentalSetup: lower dose titration, CD3+ T cells, IL-6 + drug 100 nM; MSD signal (No stim. 123, IL-6 alone 5767)
recordedEndpoint: pSTAT3
Write the value as a bare number.

Some molecules with known pSTAT3 results, for comparison:
1. C[C@@H]1CCN(C(=O)CC#N)C[C@@H]1N(C)c1ncnc2[nH]ccc12
1006
2. O=C(Nc1nc2cccc(-c3ccc(CN4CCS(=O)(=O)CC4)cc3)n2n1)C1CC1
5441
3. CCS(=O)(=O)N1CC(CC#N)(n2cc(-c3ncnc4[nH]ccc34)cn2)C1
288

Please find the next molecule below.
// query Give the measured pSTAT3 of CC[C@@H]1CN(C(=O)NCC(F)(F)F)C[C@@H]1c1cnc2cnc3[nH]ccc3n12 .
// result 319

###

Test system: phospho-STAT panel (pSTAT3/4/5), CD3+ T cells
protocolSummary: phospho-STAT induction by IL-6, MesoScale Discovery phospho-STAT panel
Assay type: cell-based, human
experimentalSetup: CD3+ T cells, IL-6 + drug 0.125 uM; MSD signal (No stim. 689, IL-6 alone 33641)
Listing of recorded pSTAT3 by entry.

1. C[C@@H]1C[C@H]2[C@@H]3CCC4=CC(=O)C=C[C@]4(C)[C@@]3(F)[C@@H](O)C[C@]2(C)[C@@]1(O)C(=O)CO
26776
2. C[C@@H]1CCN(C(=O)CC#N)C[C@@H]1N(C)c1ncnc2[nH]ccc12
7733
3. CC[C@@H]1CN(C(=O)NCC(F)(F)F)C[C@@H]1c1cnc2cnc3[nH]ccc3n12
3605

// query Give the measured pSTAT3 of O=C(Nc1nc2cccc(-c3ccc(CN4CCS(=O)(=O)CC4)cc3)n2n1)C1CC1 .
// result 23255

// query Give the measured pSTAT3 of C[C@H]1C[C@@H]2[C@H]([C@@H](O)C[C@@]3(C)[C@H]2CC[C@]3(O)C(=O)CO)[C@@]2(C)C=CC(=O)C=C12 .
// result 30520
